- assayTarget: human RORγt ligand binding domain (RORγt LBD) (Homo sapiens (Human))
- Sequence (P51449 other isoform, or with tags, fused parts or gaps): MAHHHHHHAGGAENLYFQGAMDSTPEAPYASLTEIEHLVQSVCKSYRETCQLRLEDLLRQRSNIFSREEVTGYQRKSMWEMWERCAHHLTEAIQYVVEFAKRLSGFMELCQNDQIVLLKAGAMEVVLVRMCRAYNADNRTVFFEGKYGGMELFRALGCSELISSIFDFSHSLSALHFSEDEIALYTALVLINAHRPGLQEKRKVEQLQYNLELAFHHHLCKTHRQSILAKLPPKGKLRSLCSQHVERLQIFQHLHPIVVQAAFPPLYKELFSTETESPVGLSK
- assayProtocol: RORγt ThermoFluor® assay (thermal shift binding)
- conditionDetails: read-out: ThermoFluor® Assay, Kd
measuredParameter: pKd
Give bare numbers, as −log10 of the molar value.

Field: example entries. Status: answers known.
Q: If you can, please state the reported pKd value of C[C@H](Nc1cc(C(F)F)c(-c2sc(C(=O)NCC(C)(C)O)nc2C(=O)N2C3CCC2CC3)cn1)C(F)(F)F .
Result: 7.80

Q: Same for C[C@H]1CCCN1C(=O)c1nc(C(=O)NCC(C)(C)O)sc1-c1cnc(NCC2CCC2)cc1C(F)F
Result: 7.52

Q: Try this compound next: CC(C)(C)Nc1cc(C(F)F)c(-c2sc(C(=O)N[C@@H]3CCC[C@H]3O)nc2C(=O)N2C3CCC2CC3)cn1
Result: 9.20

Then there is this compound:
Q: Form field: reported pKd of C[C@H]1CCCN1C(=O)c1nc(C(=O)N[C@H]2CCC[C@@H]2O)sc1-c1cnc(NC(C)(C)C)cc1C(F)F
Result: 8.96

Recorded values, source patent US10975068B2.
